Provenance of the data: patent US20190271021A1

# System Tested: human TrkB on CHO cells (CHO-K1-hTrkB/pSRE-Luc) (human) (UniProt Q16620)
# Sequence (Q16620 32-822): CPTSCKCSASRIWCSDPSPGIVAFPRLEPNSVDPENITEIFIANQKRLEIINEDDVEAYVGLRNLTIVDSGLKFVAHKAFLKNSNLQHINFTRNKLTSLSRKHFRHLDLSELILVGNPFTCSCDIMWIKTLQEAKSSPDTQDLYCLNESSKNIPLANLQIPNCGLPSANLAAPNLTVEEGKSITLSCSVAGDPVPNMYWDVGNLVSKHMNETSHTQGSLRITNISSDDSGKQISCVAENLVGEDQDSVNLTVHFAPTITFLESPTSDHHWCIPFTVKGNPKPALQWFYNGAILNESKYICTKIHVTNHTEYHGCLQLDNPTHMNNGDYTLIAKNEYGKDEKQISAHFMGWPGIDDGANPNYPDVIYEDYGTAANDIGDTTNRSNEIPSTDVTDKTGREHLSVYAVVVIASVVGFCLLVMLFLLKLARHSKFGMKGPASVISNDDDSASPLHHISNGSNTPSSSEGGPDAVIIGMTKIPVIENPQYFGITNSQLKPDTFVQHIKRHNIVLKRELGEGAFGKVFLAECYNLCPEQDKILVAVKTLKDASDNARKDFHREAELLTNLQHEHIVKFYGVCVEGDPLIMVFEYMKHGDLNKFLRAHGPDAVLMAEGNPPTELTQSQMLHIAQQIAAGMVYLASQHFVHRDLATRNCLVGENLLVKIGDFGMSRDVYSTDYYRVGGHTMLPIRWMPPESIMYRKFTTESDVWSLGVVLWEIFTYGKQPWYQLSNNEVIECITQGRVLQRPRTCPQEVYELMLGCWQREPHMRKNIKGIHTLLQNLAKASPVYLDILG
# Method Notes: cell-based or functional assay
// reported BDNF activity in TrkBluciferase assay, EC50 [% or nM] per item
Measured Endpoint: BDNF activity in TrkBluciferase assay, EC50 [% or nM] (%)

- Binder: "pre-pro-BDNF(-RGR; G62N, Y63G, R81N)-T7-His6 (ligand) APMKEANIRGQGGLAYPGVRTHGTLESVNGPKAGSRGLTSLADTFEHVIEELLDEDQKVRPNEENNKDADLYTSRVMLSSQVPLEPPLLFLLEEYKNYLDAANMSMRVRRHSDPARRGELSVCDSISEWVTAADKKTAVDMSGGTVTVLEKVPVSKGQLKQYFYETKCNPMNGTKEGCRGIDKRHWNSQCNTTQSYVRALTMDSKKRIGWRFIRIDTSCVCTLTIKGSGMASMTGGQQMGHHHHHH"
  Result Unit: "%"
  Meas Value: 203
- Binder: "pre-pro-BDNF(-RGR)-opsin(L)-His6 (ligand) APMKEANIRGQGGLAYPGVRTHGTLESVNGPKAGSRGLTSLADTFEHVIEELLDEDQKVRPNEENNKDADLYTSRVMLSSQVPLEPPLLFLLEEYKNYLDAANMSMRVRRHSDPARRGELSVCDSISEWVTAADKKTAVDMSGGTVTVLEKVPVSKGQLKQYFYETKCNPMGYTKEGCRGIDKRHWNSQCRTTQSYVRALTMDSKKRIGWRFIRIDTSCVCTLTIKGSGNGTEGPNFYVPFSNATGVVRHHHHHH"
  Result Unit: "%"
  Meas Value: 555
